Source: PubChem BioAssay (EPA / NIEHS)

Read-out: Interleukin 2 (IL2), IL2 (gene 3558)
experimentSummary: BSK_BT_xIL2: BioMAP Diversity Plus: BT Assay for Interleukin 2 (IL2) Biomarker Activity (AID 2284245)
conditionContext: primary human B cells with PBMC
Calls of active or inactive are those of the source. Rule for the calls: active = hit-call score of the fitted dose curve at least 0.9, where 1 is the maximum; inactive = score below 0.9.
Possible outcomes: true (1) for active, false (0) for inactive

molecule	answerLabel
CC(C)(C)C(=O)CCl	false (0)
O=c1[nH]c(Cl)c(Cl)cc1Cl	false (0)
Oc1cc(Cl)ccc1Cl	false (0)
CCC(C)c1cc([N+](=O)[O-])cc([N+](=O)[O-])c1OC(=O)C=C(C)C (stereo unspecified)	true (1)
C=CC(=O)OCC(CC)CCCC (stereo unspecified)	false (0)
CCCOC(=O)c1ccccc1C(=O)OCCC	false (0)

====

Read-out: Vascular endothelial growth factor receptor 2 (Homo sapiens) (UniProt P35968)
experimentSummary: BSK_4H_VEGFRII: BioMAP Diversity Plus: 4H Assay for Vascular endothelial growth factor receptor 2 (VEGFR2) Biomarker Activity (AID 2283031)
conditionContext: primary human endothelial cells (HUVEC); actives raise or lower the signal
Calls of active or inactive are those of the source. Rule for the calls: active = hit-call score of the fitted dose curve at least 0.9, where 1 is the maximum; inactive = score below 0.9.
Possible outcomes: yes (1) for active, no (0) for inactive

molecule	answerLabel
CCc1cc(C)cc(CC)c1-c1c(OC(=O)C(C)(C)C)n2n(c1=O)CCOCC2	no (0)
O=C(CCl)c1ccccc1	no (0)
CC(C)CCCCCCCOP(=O)(Oc1ccccc1)Oc1ccccc1	yes (1)
Nc1ccc(-c2ccc(N)c(N)c2)cc1N	no (0)
CC(C)(C)C(O)C(Oc1ccc(-c2ccccc2)cc1)n1cncn1 (stereo not drawn)	yes (1)
CC(=O)/C=C/c1ccccc1	no (0)
O=[N+]([O-])C=Cc1ccccc1	no (0)
COC(C)(C)CCC[C@H](C)C/C=C/C(C)=C/C(=O)OC(C)C	yes (1)

====

experimentSummary: ATG_Oct_MLP_CIS: Attagene CIS-FACTORIAL HepG2 Assay for human Octamer-Binding Transcription Factor (Oct) (AID 2282993)
conditionContext: HepG2 Attagene cis-factorial Oct reporter, mRNA; actives raise or lower the signal
Protocol: ATG_CIS is a cell-based, multiplexed-readout assay that uses HepG2, a human liver cell line, with measurements taken at 24 hours after chemical dosing in a 24-well plate.ATG_Oct_MLP_CIS is one of 52 assay component(s) measured or calculated from the ATG_CIS assay. […] This assay endpoint, ATG_Oct_MLP_CIS, was analyzed with bidirectional fitting relative to DMSO as the negative control and baseline of activity. […]
Calls of active or inactive are those of the source. The calls were made as follows: active = hit-call score of the fitted dose curve at least 0.9, where 1 is the maximum; inactive = score below 0.9.
Possible outcomes: active, inactive

molecule	answerLabel
[CH3][Sn]([CH3])([Cl])[Cl]	inactive
N#CCNCC#N	inactive
C=CCN(CC=C)C(=O)C(Cl)Cl	inactive
C=CC(=O)OC	inactive
CC(=O)c1cc2c(cc1C)C(C)(C)C(C)CC2(C)C (configuration not stated)	active
CC(C)C#N	inactive
CC1(C)C(=O)NC(=O)NC1=O	inactive
O=[N+]([O-])C=Cc1ccccc1	active
Oc1cc(Cl)ccc1Cl	inactive
C[C@]12CC[C@H](O)C[C@H]1CC[C@@H]1[C@@H]2C[C@@H](O)[C@]2(C)[C@@H](C3=CC(=O)OC3)CC[C@]12O	active
O=C=Nc1ccccc1	inactive
CCC(C)c1cc([N+](=O)[O-])cc([N+](=O)[O-])c1OC(=O)C=C(C)C (configuration not stated)	active
CN1C[C@H](C(=O)N[C@]2(C)O[C@@]3(O)[C@@H]4CCCN4C(=O)[C@H](Cc4ccccc4)N3C2=O)C=C2c3cccc4[nH]cc(c34)C[C@H]21	inactive
SCc1ccco1	inactive
COc1cc(OC)nc(Oc2cccc(Oc3nc(OC)cc(OC)n3)c2C(=O)O)n1	inactive
CN1C(=O)CCS(=O)(=O)C1c1ccc(Cl)cc1 (configuration not stated)	inactive
CC(C)[C@@H](C(=O)O[C@@H](C#N)c1cccc(Oc2ccccc2)c1)c1ccc(Cl)cc1	inactive

====

experimentSummary: ATG_TAL_CIS: Attagene CIS-FACTORIAL HepG2 Assay for human TAL Basal Promoter (AID 2282966);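 note: background control endpoint measuring basal TAL promoter reporter mRNA not a specific factor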
conditionContext: HepG2 Attagene cis-factorial TAL promoter reporter; actives raise or lower the signal
Activity calls are given as the source filed them. How the source made its calls: active means hit-call score of the fitted dose curve at least 0.9, where 1 is the maximum; inactive means score below 0.9.
Possible outcomes: active, inactive

compound	answerLabel
N#CCCCCC#N	inactive
CCCCCCCCCCCCCCCC[N+](C)(C)C	active
CCC(C)c1cc(C(C)(C)C)cc(-n2nc3ccccc3n2)c1O (centres undefined)	inactive
CCCCOC(=O)CCC(=O)OCCCC	inactive
C=CCN(CC=C)C(=O)C(Cl)Cl	inactive
Nc1ccccc1	inactive
CCCCOP(=O)(O)OCCCC	inactive
Clc1ccc(-c2ccccc2)cc1	inactive
Nc1cc(Cl)cc(Cl)c1	inactive
Cl/C=C\CCl	inactive
O=C(O)CCCc1ccc(N(CCCl)CCCl)cc1	inactive
BrCBr	inactive
C[C@]12CCC(=O)C(O)=C1CC[C@@H]1[C@@H]2CC[C@]2(C)C(=O)CC[C@@H]12	inactive
CCN(CC)C(=S)S	inactive
O=C(O)c1cc[c]([Hg][Cl])cc1	inactive
CC1(C)[C@H](C(=O)O[C@H](C#N)c2cccc(Oc3ccccc3)c2)[C@@H]1C=C(Br)Br	inactive
CN(N=O)c1ccccc1	inactive
[CH3][Sn]([CH3])([Cl])[Cl]	inactive
Cc1cc(C)c(C2=C(OC(=O)CC(C)(C)C)C3(CCCC3)OC2=O)c(C)c1	inactive

====

tgt: human AMP-activated Protein Kinase, alpha 1 (AMPKa1), PRKAA1 (gene 5562) (UniProt Q13131)
Sequence (Q13131 whole entry, looked up): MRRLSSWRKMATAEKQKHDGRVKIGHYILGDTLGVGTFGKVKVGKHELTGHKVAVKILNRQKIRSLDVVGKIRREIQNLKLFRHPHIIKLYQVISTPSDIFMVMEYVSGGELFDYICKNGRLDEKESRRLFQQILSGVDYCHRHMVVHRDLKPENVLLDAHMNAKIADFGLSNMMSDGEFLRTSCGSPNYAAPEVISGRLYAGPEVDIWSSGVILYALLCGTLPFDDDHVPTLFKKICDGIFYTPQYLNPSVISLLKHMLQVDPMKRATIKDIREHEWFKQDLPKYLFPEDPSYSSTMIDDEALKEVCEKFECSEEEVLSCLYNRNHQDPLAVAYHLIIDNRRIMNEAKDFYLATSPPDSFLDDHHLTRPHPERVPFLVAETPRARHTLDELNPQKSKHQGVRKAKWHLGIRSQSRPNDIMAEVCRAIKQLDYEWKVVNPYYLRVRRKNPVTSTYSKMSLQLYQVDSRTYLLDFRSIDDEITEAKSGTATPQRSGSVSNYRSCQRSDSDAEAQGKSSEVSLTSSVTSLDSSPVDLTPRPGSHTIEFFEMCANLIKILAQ
experimentSummary: NVS_ENZ_hAMPKa1: NovaScreen (NVS) Enzymatic Assay for human AMP-activated Protein Kinase, alpha 1 (AMPKa1) (AID 2283130)
Records with an inconclusive call do not appear. Calls of active or inactive are those of the source. The calls were made as follows: active = hit-call score of the fitted dose curve at least 0.9, where 1 is the maximum; inconclusive = response in the unintended direction; inactive = score below 0.9.
Possible outcomes: YES for active, NO for inactive

itemSmiles	tgt	answerLabel
CCCCCC(=O)O	human AMP-activated Protein Kinase, alpha 1 (AMPKa1), PRKAA1 (gene 5562) (UniProt Q13131)	NO
Cc1ncc([C@@H](CCCCCCc2ccc3c(n2)NCCC3)CC(=O)O)cn1	human AMP-activated Protein Kinase, alpha 1 (AMPKa1), PRKAA1 (gene 5562) (UniProt Q13131)	NO
CCc1c(C(=O)NN2CCCCC2)nn(-c2ccc(Cl)cc2Cl)c1-c1ccc(Br)cc1	human AMP-activated Protein Kinase, alpha 1 (AMPKa1), PRKAA1 (gene 5562) (UniProt Q13131)	NO
Oc1ccc(C(c2ccc(O)cc2)C(Cl)(Cl)Cl)cc1	human AMP-activated Protein Kinase, alpha 1 (AMPKa1), PRKAA1 (gene 5562) (UniProt Q13131)	YES
Cc1ccc(N)cc1O	human AMP-activated Protein Kinase, alpha 1 (AMPKa1), PRKAA1 (gene 5562) (UniProt Q13131)	NO

====

experimentSummary: CCTE_Mundy_HCI_hNP1_Pro_ResponderAvgInten: CCTE's Proliferation Assay in human neuroprogenitor cells, Mundy Lab (AID 2284224);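 note: human neural progenitor cells hNP1 derived from WA09 embryonic stem cells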
Records with an inconclusive call do not appear. Activity calls are given as the source filed them. How the source made its calls: active means hit-call score of the fitted dose curve at least 0.9, where 1 is the maximum; inconclusive means response in the unintended direction; inactive means score below 0.9.
Possible outcomes: 1.0 for active, 0.0 for inactive

compound	answerLabel
C[C@@]1(CO)[C@H](O)CC[C@@]2(C)[C@H]1CC[C@H]1C[C@@H]3C[C@@]12CC[C@]3(O)CO	0.0
CCOP(=O)(Oc1cnc(C(C)(C)C)nc1)OC(C)C (centres undefined)	0.0
O=C(O)CNCP(=O)(O)O	0.0
CC1(C)C(C=C(Cl)Cl)C1C(=O)O[C@H](C#N)c1cccc(Oc2ccccc2)c1 (some centres undefined)	1.0
C[n+]1ccc(-c2cc[n+](C)cc2)cc1	1.0
CC(=O)[O-].[Tl+]	0.0
CC1(C)C(C=C(Cl)c2ccc(Cl)cc2)C1C(=O)OC(C#N)c1ccc(F)c(Oc2ccccc2)c1 (centres undefined)	0.0
CNC(=N[N+](=O)[O-])NCC1CCOC1 (centres undefined)	0.0
[CH3][Hg][Cl]	1.0

====

experimentSummary: ATG_Ets_CIS: Attagene CIS-FACTORIAL HepG2 Assay for human Erythroblast Transformation Specific (ETS) (AID 2282941)
conditionContext: HepG2 ETS cis-reporter transcription, actives raise or lower the signal
Activity calls are given as the source filed them. How the source made its calls: active means hit-call score of the fitted dose curve at least 0.9, where 1 is the maximum; inactive means score below 0.9.
Possible outcomes: active, inactive

compound	answerLabel
O=C1C(Cl)=C(Cl)C(=O)C(Cl)=C1Cl	inactive
CCC(C)c1cc(C(C)(C)C)cc(-n2nc3ccccc3n2)c1O (stereo not given)	inactive
CSc1nc(N=[N+]=[N-])nc(NC(C)C)n1	inactive
COC(C)(C)CCC[C@H](C)C/C=C/C(C)=C/C(=O)OC(C)C	inactive
N#CCCCCC#N	inactive
O=C(CCN1CC1)OCC(CO)(COC(=O)CCN1CC1)COC(=O)CCN1CC1	inactive
CC1(C)[C@H](C(=O)O[C@H](C#N)c2cccc(Oc3ccccc3)c2)[C@@H]1C=C(Br)Br	inactive
CN1C(=O)CCS(=O)(=O)C1c1ccc(Cl)cc1 (stereo not given)	inactive
CC(=O)C=Cc1ccccc1	active
O=CNC(N1CCN(C(NC=O)C(Cl)(Cl)Cl)CC1)C(Cl)(Cl)Cl (stereo not given)	inactive
N#Cc1cc(I)c(O)c(I)c1	inactive
CCOP(O)OCC	inactive
CCOC(=O)N(C)N=O	inactive
S=c1[nH]c2ccccc2[nH]1	inactive
CCCCCc1cc(O)cc(O)c1	inactive
O=S(=O)(O)O	inactive
O=[N+]([O-])O.O=[N+]([O-])O.[Cd]	inactive
CCOP(=O)(OCC)OCC	inactive
O=C(O)CCl	inactive
C[C@]12CC[C@H]3[C@@H](CC[C@@]45O[C@@H]4C(O)=C(C#N)C[C@]35C)[C@@H]1CC[C@@H]2O	inactive
COC(=O)COc1ccc(Cl)cc1Cl	inactive
CC(C)(c1cc(Cl)c(O)c(Cl)c1)c1cc(Cl)c(O)c(Cl)c1	inactive
CCC(C)(C)O	inactive
C#CC1(O)CCCCC1	inactive
N#CCNCC#N	inactive
CC1(C)CC(=O)CC(C)(C)N1[O]	inactive
Nc1cc(Cl)cc(Cl)c1	inactive
CNC(=O)Oc1cc(C)c(SC)c(C)c1	inactive
CCOC(=O)COc1ccc(Cl)cc1Cl	inactive
O=[N+]([O-])c1cc(C(F)(F)F)c(Cl)c([N+](=O)[O-])c1Cl	inactive
Clc1ccc(-c2ccccc2)cc1	inactive
Oc1ccc(Cl)cc1	inactive
[CH3][Sn]([Cl])([Cl])[Cl]	inactive
COc1ccc(CO)cc1	inactive
Oc1ccc(C2(c3ccc(O)cc3)c3ccccc3-c3ccccc32)cc1	inactive
Oc1cc(Cl)ccc1Cl	inactive
O=P(O)(Oc1ccccc1)Oc1ccccc1	inactive
[Cl][Sb]([Cl])[Cl]	inactive
CCCCNP(N)(N)=S	inactive
CCC[N+](=O)[O-]	inactive
CCNCC	inactive
c1ccc(Nc2ccc3ccccc3c2)cc1	inactive
Nc1ccc(-c2ccc(N)c(N)c2)cc1N	inactive
CCCCCCC1CCOC1=O (stereo not given)	inactive
C[N+](=O)[O-]	inactive
[Cl-].[Cl-].[Cl-].[Yb+3]	inactive
CC(C)CCCCCCCOC(=O)c1ccccc1C(=O)OCCCCCCCC(C)C	inactive
CC(C)(Cl)Cl	inactive
C=C(Cl)CCl	inactive
ClC1=C(Cl)[C@]2(Cl)[C@@H]3[C@@H](Cl)[C@H](Cl)C[C@@H]3[C@@]1(Cl)C2(Cl)Cl	inactive
